Parameter: growth. Scope: all listed entries.
Tested on: HL-60(TB) leukemia
Test: NCI-60 one-dose screen, 48 h (100 = growth as untreated, 0 = no growth, -100 = all killed)
Settings: 10 µM unless noted
Experimental: Growth inhibition of the HL-60(TB) human tumor cell line is measured as a screen for anti-cancer activity. Cells are grown in 96 well plates and exposed to the test compound for 48 hours. Compounds are tested at a single concentration, which is 10^-5 M for most compounds. The reported endpoint is percent growth (GI% or GIPRCNT), where numbers from 0 - 100% represent growth inhibition, and numbers from -100% - 0 represent cell death. For example, a value of 40 represents 60% growth inhibition. […]
The panel holds about 83,000 compounds, 20% with a hit somewhere; the sample as a whole holds those more often. Active and inactive are the calls of the source. Rule for the calls: active = growth percent below 10; inactive = the rest.

The examples below pair each entry with its known result.
| compound | valueType | valueMeasured |
| --- | --- | --- |
| O=C1C(=O)N(Cc2ccc(-c3ccccc3)cc2)c2ccc(OC(F)(F)F)cc21 | growth | 17.7% (inactive) |
| Cc1ccc(C2CC(c3cccc(Nc4ccncc4)c3)=NN2c2ccccc2)cc1 (stereo unspecified) | growth | -56.6% (active) |
| COc1ccccc1/C=C/C(=O)Nc1ccc(F)cc1 | growth | 86.3% (inactive) |

[ask] Give the measured growth for Fc1ccc(NC(=S)c2ccccc2)cc1
[reply] 102% (inactive)
